Recorded values, source ChEMBL document CHEMBL5584208.

tested on: Pfeiffer; assay: Antiproliferative activity against human Pfeiffer cells harboring EZH2 A677G mutant; format: functional, cell-based
value type: IC50 (nM)
Number in nM, nothing else.

[[record]]
compound = "CCN(c1cc(-c2ccc3c(c2)N(C)CC32CCOCC2)cc(C(=O)NCc2c(C)cc(C)[nH]c2=O)c1C)C1CCOCC1"
measured_result = 1.01

[[record]]
compound = "CCN(c1cc(-c2ccc(CN3CCOCC3)cc2)cc(C(=O)NCc2c(C)cc(C)[nH]c2=O)c1C)C1CCOCC1 [TAZEMETOSTAT]"
measured_result = 2.26

[[record]]
compound = "CCN1C(=O)C2(CCOCC2)c2ccc(-c3cc(C(=O)NCc4c(C)cc(C)[nH]c4=O)c(C)c(N(CC)C4CCOCC4)c3)cc21"
measured_result = 0.49


Exam item: Need IC50 of CCN(c1cc(-c2ccc3c(c2)NC(=O)C32CCN(C)CC2)cc(C(=O)NCc2c(C)cc(C)[nH]c2=O)c1C)C1CCOCC1 , thanks.
Marked response: 1.98

Exam item: Need IC50 of CCN(c1cc(-c2ccc3c(c2)CCC3N2CCOCC2)cc(C(=O)NCc2c(C)cc(C)[nH]c2=O)c1C)C1CCOCC1 (stereo unspecified) , thanks.
Marked response: 1.73

Exam item: Need IC50 of CCN(c1cc(-c2ccc3c(c2)NC(=O)C32CCOCC2)cc(C(=O)NCc2c(C)cc(C)[nH]c2=O)c1C)C1CCOCC1 , thanks.
Marked response: 0.56

====

assay: Cmax in mouse at 2 mg/kg, iv; assay type: ADME, organism-based; conditions: in vivo
# reported Cmax; entries follow
Number in ng/mL, nothing else.

[[record]]
compound = "CCN(c1cc(-c2ccc3c(c2)NC(=O)C32CCOCC2)cc(C(=O)NCc2c(C)cc(C)[nH]c2=O)c1C)C1CCOCC1"
value_unit = "ng/mL"
measured_result = 912


Now consider the entry below.
Exam item: Need Cmax of CCN1C(=O)C2(CCOCC2)c2ccc(-c3cc(C(=O)NCc4c(C)cc(C)[nH]c4=O)c(C)c(N(CC)C4CCOCC4)c3)cc21 , thanks.
Marked response: 2580

====

assay: Metabolic stability in mouse liver microsomes assessed as half life; assay type: ADME, Microsome
value type: half-life
I'd appreciate it if you included the unit after the number.

[[record]]
compound = "CCN(c1cc(-c2ccc3c(c2)CCC3N2CCOCC2)cc(C(=O)NCc2c(C)cc(C)[nH]c2=O)c1C)C1CCOCC1 (configuration not stated)"
measured_result = "17.5 min"


Exam item: Need half-life of CCN(c1cc(-c2ccc(CN3CCOCC3)cc2)cc(C(=O)NCc2c(C)cc(C)[nH]c2=O)c1C)C1CCOCC1 [TAZEMETOSTAT] , thanks.
Marked response: 9.6 min

====

assay: Metabolic stability in human liver microsomes assessed as half life; format: ADME, Microsome
value type: half-life
I'd appreciate it if you included the unit after the number.

[[record]]
compound = "CCN(c1cc(-c2ccc3c(c2)CCC3N2CCOCC2)cc(C(=O)NCc2c(C)cc(C)[nH]c2=O)c1C)C1CCOCC1 (configuration not stated)"
value_type = "half-life"
measured_result = "1.34 h"


Exam item: Need half-life of CCN(c1cc(-c2ccc(CN3CCOCC3)cc2)cc(C(=O)NCc2c(C)cc(C)[nH]c2=O)c1C)C1CCOCC1 , thanks.
Marked response: 0.978 h
